- MEASUREMENT_PROTOCOL: Penetration of intact and disrupted Blood Brain Barrier
- Format: in vivo, mice
- CONDITION_DETAILS: mouse, CNS tissue relative to blood, healthy mice; read-out: CNS tissue level, % of the blood concentration
- Text: In another study, laquinimod, as a small molecule, penetrated both intact and disrupted Blood Brain Barrier (BBB). In view of FIG. 17, CNS tissue level of laquinimod was 7-8% of the blood concentration in healthy mice and 13% in EAE mice when the BBB was disrupted. Further, 90% of the drug in cerebrospinal fluid (CSF) was active, or free, due to low protein binding and expected also in brain interstitial fluids. Thus, laquinimod targeted the entire brain and not only the lesions.
REPORTED_PROPERTY: Kp

Query CCN(C(=O)c1c(O)c2c(Cl)cccc2n(C)c1=O)c1ccccc1 [Laquinimod] yields Kp of 0.07 to 0.08
